Form field: PBM binding z-score (one value per entry).
Test system: LXRb homodimer (NR concentration 270 nM)
Test: PBM binding z-score (relative to random genomic background probes); higher = stronger binding; sequences stand for … in GC…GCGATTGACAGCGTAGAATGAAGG
EXPERIMENTAL_ENDPOINT: PBM binding z-score

> print(dat)
                            seq.string                            assayed.target  data.value
 1  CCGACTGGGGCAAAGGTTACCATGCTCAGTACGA  LXRb homodimer (NR concentration 270 nM)      -0.983
 2  CCTACTGGGCCAAGGTCATTGCTCAGTCAAAGCA  LXRb homodimer (NR concentration 270 nM)       -0.46
 3  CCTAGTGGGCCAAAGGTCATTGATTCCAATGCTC  LXRb homodimer (NR concentration 270 nM)       0.768
 4  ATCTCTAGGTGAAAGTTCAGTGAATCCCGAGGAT  LXRb homodimer (NR concentration 270 nM)       0.429
 5  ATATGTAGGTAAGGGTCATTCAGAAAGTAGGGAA  LXRb homodimer (NR concentration 270 nM)        1.45
 6  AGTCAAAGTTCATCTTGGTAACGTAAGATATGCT  LXRb homodimer (NR concentration 270 nM)        2.25
 7  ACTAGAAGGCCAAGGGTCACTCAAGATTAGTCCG  LXRb homodimer (NR concentration 270 nM)      -0.267
 8  ATATGTAGGTTACGGTCATTCAGAAAGTAGGGAA  LXRb homodimer (NR concentration 270 nM)        1.02
 9  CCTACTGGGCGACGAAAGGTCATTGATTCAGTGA  LXRb homodimer (NR concentration 270 nM)      -0.175
10  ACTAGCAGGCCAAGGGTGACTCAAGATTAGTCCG  LXRb homodimer (NR concentration 270 nM)          -1
11  ATATGTAGGTTAGGGTCATTCGGAAAGTAGGGAA  LXRb homodimer (NR concentration 270 nM)        1.67
12  TCTCGGAGGTCACGAAGGTCAGAGCTTTCCAGAG  LXRb homodimer (NR concentration 270 nM)       0.683
13  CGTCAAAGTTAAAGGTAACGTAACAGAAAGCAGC  LXRb homodimer (NR concentration 270 nM)     -0.0705
14  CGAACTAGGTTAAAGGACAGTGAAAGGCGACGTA  LXRb homodimer (NR concentration 270 nM)      -0.736
15  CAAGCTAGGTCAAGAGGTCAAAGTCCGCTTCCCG  LXRb homodimer (NR concentration 270 nM)        1.58
16  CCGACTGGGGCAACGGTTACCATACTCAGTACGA  LXRb homodimer (NR concentration 270 nM)       -1.33
17  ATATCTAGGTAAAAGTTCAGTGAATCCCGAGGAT  LXRb homodimer (NR concentration 270 nM)       0.657
18  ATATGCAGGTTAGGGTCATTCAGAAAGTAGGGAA  LXRb homodimer (NR concentration 270 nM)       0.909
19  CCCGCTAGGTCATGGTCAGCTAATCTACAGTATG  LXRb homodimer (NR concentration 270 nM)      -0.348
20  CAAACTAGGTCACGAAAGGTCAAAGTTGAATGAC  LXRb homodimer (NR concentration 270 nM)        2.68
21  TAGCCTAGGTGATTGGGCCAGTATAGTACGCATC  LXRb homodimer (NR concentration 270 nM)       -0.51
22  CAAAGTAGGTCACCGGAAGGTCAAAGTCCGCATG  LXRb homodimer (NR concentration 270 nM)        1.43
23  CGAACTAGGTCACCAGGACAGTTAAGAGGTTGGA  LXRb homodimer (NR concentration 270 nM)      -0.421
24  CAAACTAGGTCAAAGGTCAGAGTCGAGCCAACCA  LXRb homodimer (NR concentration 270 nM)        1.62
25  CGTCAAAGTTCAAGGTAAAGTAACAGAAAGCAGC  LXRb homodimer (NR concentration 270 nM)       0.837
26  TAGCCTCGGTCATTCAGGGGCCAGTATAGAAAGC  LXRb homodimer (NR concentration 270 nM)       0.157
27  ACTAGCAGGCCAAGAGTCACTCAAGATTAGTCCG  LXRb homodimer (NR concentration 270 nM)      -0.882
28  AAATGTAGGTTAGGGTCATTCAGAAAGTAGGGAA  LXRb homodimer (NR concentration 270 nM)         1.5
29  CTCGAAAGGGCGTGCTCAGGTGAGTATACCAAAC  LXRb homodimer (NR concentration 270 nM)      -0.824
30  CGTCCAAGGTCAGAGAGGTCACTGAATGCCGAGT  LXRb homodimer (NR concentration 270 nM)       0.485
31  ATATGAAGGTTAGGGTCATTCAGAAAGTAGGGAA  LXRb homodimer (NR concentration 270 nM)         1.7
32  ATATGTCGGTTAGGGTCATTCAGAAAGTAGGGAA  LXRb homodimer (NR concentration 270 nM)        2.21
33  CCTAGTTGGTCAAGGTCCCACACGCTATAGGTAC  LXRb homodimer (NR concentration 270 nM)       -0.02
34  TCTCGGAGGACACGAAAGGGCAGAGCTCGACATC  LXRb homodimer (NR concentration 270 nM)       -0.72
35  AGTCAAAGTTCTTCTAGGTAACGTAAGATATGCT  LXRb homodimer (NR concentration 270 nM)      0.0414
36  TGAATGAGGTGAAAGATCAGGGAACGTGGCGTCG  LXRb homodimer (NR concentration 270 nM)       0.209
37  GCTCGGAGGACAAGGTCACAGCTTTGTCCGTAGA  LXRb homodimer (NR concentration 270 nM)       0.142
38  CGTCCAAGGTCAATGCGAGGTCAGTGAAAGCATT  LXRb homodimer (NR concentration 270 nM)        1.25
39  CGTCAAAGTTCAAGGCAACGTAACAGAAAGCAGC  LXRb homodimer (NR concentration 270 nM)        0.47
40  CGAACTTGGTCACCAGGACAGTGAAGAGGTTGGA  LXRb homodimer (NR concentration 270 nM)      -0.791
41  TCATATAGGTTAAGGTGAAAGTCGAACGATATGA  LXRb homodimer (NR concentration 270 nM)       0.204
42  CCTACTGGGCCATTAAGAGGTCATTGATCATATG  LXRb homodimer (NR concentration 270 nM)      0.0638
43  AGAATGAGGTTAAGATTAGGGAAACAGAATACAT  LXRb homodimer (NR concentration 270 nM)      -0.185
44  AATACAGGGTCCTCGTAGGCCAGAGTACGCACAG  LXRb homodimer (NR concentration 270 nM)      -0.321
45  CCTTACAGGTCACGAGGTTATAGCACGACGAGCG  LXRb homodimer (NR concentration 270 nM)       0.788
46  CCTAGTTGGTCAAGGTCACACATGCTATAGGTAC  LXRb homodimer (NR concentration 270 nM)       0.901
47  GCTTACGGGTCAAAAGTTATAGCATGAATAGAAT  LXRb homodimer (NR concentration 270 nM)       0.409
48  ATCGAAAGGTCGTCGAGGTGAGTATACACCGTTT  LXRb homodimer (NR concentration 270 nM)       0.543
49  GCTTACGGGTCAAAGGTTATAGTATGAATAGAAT  LXRb homodimer (NR concentration 270 nM)         0.6
50  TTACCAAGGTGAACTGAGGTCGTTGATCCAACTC  LXRb homodimer (NR concentration 270 nM)      -0.359
51  ATATGTAGGTTAGGGTCATTAAGAAAGTAGGGAA  LXRb homodimer (NR concentration 270 nM)        1.52
